System: Saccharomyces cerevisiae
protocol details: protein stability index of tFT-peptide fusion (C-terminal peptide) (PSI (0-1 scale)); higher = more stable (slower turnover)
assay context: genetic background: wild type; temperature: 30 C
measured parameter: protein stability index

{"columns": ["sequence content", "target system", "result"],
 "data": [
  ["TRCKRNETCTSG", "Saccharomyces cerevisiae", 0.669],
  ["FLSVGFSCSFVC", "Saccharomyces cerevisiae", 0.494],
  ["LGFSDIMSSLVV", "Saccharomyces cerevisiae", 0.801]
]}

----------
Test system: Saccharomyces cerevisiae;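 note: PSI is a weighted mean of sequencing reads over stability bins, variants kept only with over 10 reads, mCherry proximal and sfGFP distal, peptide attached via GGGS linker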
protocol details: protein stability index of tFT-peptide fusion (C-terminal peptide) (PSI (0-1 scale)); higher = more stable (slower turnover)
assay context: genetic background: wild type; temperature: 30 C
Kindly return met if reported protein stability index is no lower than 0.7; return not met if it is lower.

{"columns": ["sequence content", "target system", "class"],
 "data": [
  ["LLRSEETTIEPF", "Saccharomyces cerevisiae", "met"],
  ["RRAPTTATPARP", "Saccharomyces cerevisiae", "met"],
  ["FVIPLLRWGRTP", "Saccharomyces cerevisiae", "not met"],
  ["SLFFFNFPLCAL", "Saccharomyces cerevisiae", "not met"],
  ["HPTTHYLPRPAH", "Saccharomyces cerevisiae", "not met"],
  ["AKFERRTIGCSA", "Saccharomyces cerevisiae", "not met"],
  ["DKKPVQVIIIRK", "Saccharomyces cerevisiae", "not met"],
  ["ERLLLGLNRRLG", "Saccharomyces cerevisiae", "not met"],
  ["SPTLSPPPPLAL", "Saccharomyces cerevisiae", "not met"],
  ["VYFASCVVLLMV", "Saccharomyces cerevisiae", "not met"],
  ["AGLLFDSPPLLV", "Saccharomyces cerevisiae", "met"]
]}
